Measurement Protocol: NCI Yeast Anticancer Drug Screen. Data for the bub3 strain (AID 167)
Experimental Context: S. cerevisiae bub3 mutant strain, at 50.0 µM, active compounds read high
Experimental: Growth inhibition of yeast strains with defined genetic alterations is measured as a screen for potential anti-cancer activity. Selected strains with alterations in DNA damage repair or cell cycle control were exposed to compounds and growth inhibition was measured relative to vehicle treated controls. The strain used in this assay is bub3
This is part of a sample that, as a whole, favours compounds with a hit. Of some 79,000 tested, about 15% had one in any assay.
Property Label: growth inhibition (%)
Could you give me the number in %? Just the number is fine.

Query string: Give its growth inhibition value. Item: `CCCCCCCCCCCCCCNCCCCCCCCCCCCCC`
Result string: 17.1

====

Measurement Protocol: NCI Yeast Anticancer Drug Screen. Data for the mlh1 rad18 strain (AID 175)
Experimental Context: S. cerevisiae mlh1 rad18 strain growth inhibition; at 50.0 µM
Compounds without any hit were thinned out: in the full panel of roughly 79,000, 15% have a hit. Calls of active or inactive are those of the source. Rule as the data show it: active = growth inhibition above about 70%; inactive = the rest.
Output constraint: value belongs to label 1 = active, label 0 = inactive

CC(C)OC(=O)Oc1ccccc1Cl : label 0
COc1cc2ccc3c4c(OC)cc5c(c4c[n+](C)c3c2cc1OC)OCO5 : label 1
CCCCCCCCCCCOCCC1C(C(C)OCCN2CCCC2)OC2OC(C)(C)OC21 (stereo not given) : label 1
O=c1c(SCc2ccc(Cl)cc2)c(SCc2ccc(Cl)cc2)cnn1-c1ccccc1 : label 0
COC(C)CC(=O)O (stereo not given) : label 0
O=c1cc2c(n[nH]1)CCCC2 : label 0
Cc1nc(C(=O)N=C(N)N)c(N)nc1-c1ccccc1 : label 0
CC1=NOC(=O)/C1=C/c1ccc(C)cc1 : label 0

Query string: Recorded test call requested for `CC1=NCC(=O)N1`
Result string: label 0

Query string: Let us now turn to CN(Cc1cnc2nc(N)nc(N)c2n1)c1ccc(C(=O)NC(CCCCN)C(=O)O)cc1 (stereo not given)
Result string: label 0

Query string: Do the same for `CC(=N\[O-])/C(C)=N/O.CC(=N\[O-])/C(C)=N/O.CCCc1ccncc1.[Cl-].[Cl-].[Rh+3]` please
Result string: label 0

Query string: Similarly, COC1(C)O[C@@]2(C)c3ccccc3C(=O)[C@@]2(c2ccccc2)O1 (stereo not given in full) ?
Result string: label 0

Query string: Also CC(=O)Oc1ccc2c(c1)CC[C@@H]1C2[C@@H](O[N+](=O)[O-])C[C@@]2(C)C1CC[C@@H]2O[N+](=O)[O-] (stereo not given in full) ?
Result string: label 0

Query string: Moving on to `O=C(O)COc1cc(Br)cc(Br)c1`
Result string: label 0

Query string: Another compound: CCCC(O)CNCc1ccc2ncccc2c1 (stereo not given)
Result string: label 0

====

Measurement Protocol: NCI Yeast Anticancer Drug Screen. Data for the mec2-1 strain (AID 157)
Experimental Context: S. cerevisiae mec2-1 strain, at 50.0 µM, active compounds read high
The panel holds about 79,000 compounds, 15% with a hit somewhere; the sample as a whole holds those more often.
Property Label: growth inhibition (%)
Could you give me the number in %? Just the number is fine.

These solved cases illustrate the format of a correct answer.
NC(=O)NNC(=O)Cc1ccccc1 : -0.25
COc1cc(NS(=O)(=O)c2ccc(N)cc2)nc(OC)n1 : -11.3
CN(C)S(=O)(=O)C(C(N)=O)c1ccccc1 (centres undefined) : 10.6

Turning now to a further record.
Query string: Looking for the measured growth inhibition of N#CC(C(=O)O)C(c1cccc2ccccc12)c1cccc2ccc3ccccc3c12 (centres undefined) , can you help?
Result string: -2.3
